- procedure-details: ATG_TGFb_CIS: Attagene CIS-FACTORIAL HepG2 Assay for human Transforming Growth Factor (TGF) (AID 2282967)
- condition-info: HepG2 Attagene CIS TGFb reporter, mRNA transcription; actives raise or lower the signal
Calls of active or inactive are those of the source. Rule for the calls: active = hit-call score of the fitted dose curve at least 0.9, where 1 is the maximum; inactive = score below 0.9.
Would you mind answering with one of these outcomes? yes = active, no = inactive

A selection of reference data follows.
CCOC(=O)CCc1ccccc1
no
OC[C@H]1O[C@@H](Oc2ccc(O)cc2)[C@H](O)[C@@H](O)[C@@H]1O
no
CCCCCCCC/C=C\CCCCCCCC(=O)OCC
no

Inquiry: For this compound, state the assay outcome: c1ccc(CCc2ccccc2)cc1
Reply text: no

Inquiry: Next up: O=C1CCCC=CCCCCCCCCCC1
Reply text: no

Inquiry: What do we get for CCCC[O][Al]([O]CCCC)[O]CCCC ?
Reply text: no

Inquiry: Moving on to CCCCCCC(C)(C)S
Reply text: no

Inquiry: And what about the compound CC(=O)O[C@@H]1C[C@@H]2CC[C@@]1(C)C2(C)C ?
Reply text: no

Inquiry: # repeat for C[C@@H]1CCN(C(=O)[C@H](CCCN=C(N)N)NS(=O)(=O)c2cccc3c2NC[C@H](C)C3)[C@@H](C(=O)O)C1
Reply text: no

Inquiry: Please do the same for CC(Oc1cc(Cl)ccc1Cl)C(=O)O (stereo not drawn) as well.
Reply text: no

Inquiry: Ok, now COc1ccc(OC)c(N=Nc2c(O)ccc3ccccc23)c1
Reply text: no

Inquiry: Next: Cc1c(Cl)cccc1[N+](=O)[O-]
Reply text: no

Inquiry: Also, [Cl][Au]([Cl])[Cl] please.
Reply text: no

Inquiry: Note, next up: Cc1cccc(Nc2ccccc2)c1
Reply text: no

Inquiry: One more compound: Nc1ccc2c(O)cc(S(=O)(=O)O)cc2c1
Reply text: no

Inquiry: Continue with Nc1c(Cl)cc(Cl)cc1[N+](=O)[O-]
Reply text: no

Inquiry: Here is the next compound: CC/C=C\CCOC(=O)CC
Reply text: no

Inquiry: Follow-up item: C=C(C)C(=O)OCCOCCOCCOC(=O)C(=C)C
Reply text: no

Inquiry: Field entry: CCC(Cl)C(Cl)C(Cl)CC(Cl)C(Cl)C(C)Cl (stereo not drawn)
Reply text: yes

Inquiry: Repeat for the following compound: Cc1ccc(-c2ccccc2)cc1
Reply text: no

Inquiry: Repeat for the following compound: CC(=O)O[C@H]1C[C@@H]2CC[C@@]1(C)C2(C)C
Reply text: no

Inquiry: Also check CS(=O)(=O)OCCCCOS(C)(=O)=O
Reply text: no

Inquiry: Now consider O=C(O)CCCCCCCCC(=O)O and answer again.
Reply text: no

Inquiry: Record: CC1(C)COCN1
Reply text: no

Inquiry: Could you do the same for CC(C)OCCO , please?
Reply text: no

Inquiry: Now consider CCCSc1ccc2nc(NC(=O)OC)[nH]c2c1 .
Reply text: no
